Values were extracted from ChEMBL document CHEMBL3885861.

Listed here are compounds together with their documented LDH.
Species: Rattus norvegicus
Test protocol: Open TG-GATES - Regimen: Daily Repeat
Format: toxicity, organism-based, Sprague-Dawley
Design: regimen Daily Repeat, gender Male, age 6 weeks
Condition details: in vivo, po, 300 mg/kg, […], tissue Plasma, route gavage, dose level Middle, time 28 day

| Compound | Measure unit | LDH |
| --- | --- | --- |
| COc1ccc2[nH]c([S+]([O-])Cc3ncc(C)c(OC)c3C)nc2c1 (stereo not given) [OMEPRAZOLE] | IU/L | 135 |
| NC(N)=Nc1nc(CSCCC(N)=NS(N)(=O)=O)cs1 [FAMOTIDINE] | IU/L | 160.6 |
| CCOC(=O)CCC(=O)O[C@H]1[C@H](O[C@@H]2[C@@H](C)[C@H](O[C@H]3C[C@@](C)(OC)[C@@H](O)[C@H](C)O3)[C@@H](C)C(=O)O[C@H](CC)[C@@](C)(O)[C@H](O)[C@@H](C)C(=O)[C@H](C)C[C@@]2(C)O)O[C@H](C)C[C@@H]1N(C)C [ERYTHROMYCIN ETHYLSUCCINATE] | IU/L | 130.6 |
| CCOc1ccc(NC(=O)CC(C)O)cc1 (stereo not given) [BUCETIN] | IU/L | 78.8 |
| COC1=CC(=O)C[C@@H](C)[C@]12Oc1c(Cl)c(OC)cc(OC)c1C2=O [GRISEOFULVIN] | IU/L | 159.8 |
